compounds and their reported max activation
molecular target: Nuclear receptor subfamily 1 group I member 2 (Rattus norvegicus) (UniProt Q9R1A7); assay: Rat pregnane X receptor (rPXR) activation by small molecules, qHTS assay (AID 1346983); settings: rPXR luciferase reporter cells, One-Glo luminescence, 24 h; stronger effect = higher value; also: % is scaled to controls: 0 for no effect and ±100 for the full control effect; nearly all actives have a fitted effect of over 20% in size
Sequence (Q9R1A7 whole entry, looked up): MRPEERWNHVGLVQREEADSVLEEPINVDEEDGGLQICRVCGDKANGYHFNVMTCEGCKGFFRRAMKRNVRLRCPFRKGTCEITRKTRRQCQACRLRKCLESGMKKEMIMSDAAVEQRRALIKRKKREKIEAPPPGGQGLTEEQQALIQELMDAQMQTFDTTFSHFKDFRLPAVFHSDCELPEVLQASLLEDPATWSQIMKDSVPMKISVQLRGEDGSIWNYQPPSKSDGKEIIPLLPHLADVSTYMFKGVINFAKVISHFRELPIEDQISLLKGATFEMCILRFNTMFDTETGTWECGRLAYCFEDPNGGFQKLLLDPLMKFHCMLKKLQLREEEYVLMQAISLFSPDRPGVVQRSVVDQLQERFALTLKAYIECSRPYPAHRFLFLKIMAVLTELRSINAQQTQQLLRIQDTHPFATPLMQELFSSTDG
Records with an inconclusive call do not appear. Active and inactive are the calls of the source. Calls follow the shape of the dose curve; as a rule, active = well fitted activation curve with a large enough effect in the repeat runs; inconclusive = weak or mixed curves; inactive = no such curve, though single readings can be large or run the other way.

C#C[C@]1(O)CC[C@H]2[C@@H]3CCC4=C(CCC(=O)C4)[C@H]3CC[C@@]21C; 5.01% (inactive)
CCOC(=O)[C@@H](N)CS; -2.02% (inactive)
CCN(CC)CCOCCOC(=O)C(CC)(CC)c1ccccc1; 2.25% (inactive)
COc1cc(C)c(/C=C/C(C)=C/C=C/C(C)=C/C(=O)O)c(C)c1C; -4.44% (inactive)

Fill in the blank: the reported max activation of CN(C)CC/C=C1/c2ccccc2CSc2ccccc21 is ____.
-3.65% (inactive)

Find the recorded max activation belonging to O=C(O)CO.[NH2-].[NH2-].[Pt+2] and report it.
-2.14% (inactive)

For the compound shown here, CCCc1nc(C(C)(C)O)c(C(=O)OCc2oc(=O)oc2C)n1Cc1ccc(-c2ccccc2-c2nn[nH]n2)cc1 , give the reported max activation.
-4.8% (inactive)

I'd like to know its max activation. The compound in question is CCCCC[C@H](O)/C=C/[C@@H]1[C@H]2C/C(=C/CCCC(=O)O)O[C@H]2C[C@H]1O
-0.736% (inactive)

For CCc1ccc(S(=O)(=O)O)cc1 , what is its reported max activation?
-0.665% (inactive)

GET /values?readout=max activation&item= Cc1ncc(COP(=O)(O)O)c(CN)c1O
0.341% (inactive)

What measured max activation goes with CC(O)[C@H]1CC[C@H]2[C@@H]3CC[C@@H]4C[C@@H](O)CC[C@]4(C)[C@H]3CC[C@]12C (some centres not stated) ?
2.94% (inactive)

Need max activation, item CC(=O)N[C@@H]1C(O[C@H]2O[C@H](C(=O)O)C(O)[C@H](O)[C@H]2O)[C@H](O)[C@@H](CO)O[C@H]1O[C@@H]1C(C(=O)O)O[C@@H](O[C@H]2[C@H](O)[C@@H](CO)OC(O)[C@@H]2NC(C)=O)[C@H](O)[C@H]1O (some centres not stated)
-1.09% (inactive)

====

experiment: qHTS assay for identifying genotoxic compounds that show differential cytotoxicity against isogenic chicken DT40 cell lines with known DNA damage response pathways - Rad54/Ku70 mutant cell line (AID 743015); conditions: DT40 Rad54/Ku70 mutant viability, CellTiter-Glo, 40 h; series mostly up to 66.8 µM; also: nearly all actives have a fitted effect of over 60% in size
Results filed as inconclusive are left out. Calls of active or inactive are those of the source. Calls follow the shape of the dose curve; as a rule, active = well fitted cell-killing curve with a large enough effect in the repeat runs; inconclusive = weak or mixed curves; inactive = no such curve, though single readings can be large or run the other way.
In this exercise, the only acceptable responses are active, inactive

Illustrative cases are given below, each with its answer.
CC(=O)N=c1sc(S(N)(=O)=O)nn1C; inactive
O=C(c1cc2ccccc2o1)N1CCN(Cc2ccccc2)CC1; active
CCOC(=O)[C@H](CCc1ccccc1)N[C@@H](C)C(=O)N1CC2(C[C@H]1C(=O)O)SCCS2; inactive
COc1cc(/C=C/C(=O)N2CCN(CC(=O)N3CCCC3)CC2)cc(OC)c1OC; inactive

Moving on to the next compound.
For CC(CN1c2ccccc2Sc2ccc(S(=O)(=O)N(C)C)cc21)N(C)C (stereo not given) , what call appears in the results of this test?
active
